# EXPERIMENTAL_TARGET: human Nav1.5 channels stably expressed in HEK 293 cells (Homo sapiens, UniProt Q14524)
# Construct: expressed in transfected cells
# Sequence (Q14524 whole entry): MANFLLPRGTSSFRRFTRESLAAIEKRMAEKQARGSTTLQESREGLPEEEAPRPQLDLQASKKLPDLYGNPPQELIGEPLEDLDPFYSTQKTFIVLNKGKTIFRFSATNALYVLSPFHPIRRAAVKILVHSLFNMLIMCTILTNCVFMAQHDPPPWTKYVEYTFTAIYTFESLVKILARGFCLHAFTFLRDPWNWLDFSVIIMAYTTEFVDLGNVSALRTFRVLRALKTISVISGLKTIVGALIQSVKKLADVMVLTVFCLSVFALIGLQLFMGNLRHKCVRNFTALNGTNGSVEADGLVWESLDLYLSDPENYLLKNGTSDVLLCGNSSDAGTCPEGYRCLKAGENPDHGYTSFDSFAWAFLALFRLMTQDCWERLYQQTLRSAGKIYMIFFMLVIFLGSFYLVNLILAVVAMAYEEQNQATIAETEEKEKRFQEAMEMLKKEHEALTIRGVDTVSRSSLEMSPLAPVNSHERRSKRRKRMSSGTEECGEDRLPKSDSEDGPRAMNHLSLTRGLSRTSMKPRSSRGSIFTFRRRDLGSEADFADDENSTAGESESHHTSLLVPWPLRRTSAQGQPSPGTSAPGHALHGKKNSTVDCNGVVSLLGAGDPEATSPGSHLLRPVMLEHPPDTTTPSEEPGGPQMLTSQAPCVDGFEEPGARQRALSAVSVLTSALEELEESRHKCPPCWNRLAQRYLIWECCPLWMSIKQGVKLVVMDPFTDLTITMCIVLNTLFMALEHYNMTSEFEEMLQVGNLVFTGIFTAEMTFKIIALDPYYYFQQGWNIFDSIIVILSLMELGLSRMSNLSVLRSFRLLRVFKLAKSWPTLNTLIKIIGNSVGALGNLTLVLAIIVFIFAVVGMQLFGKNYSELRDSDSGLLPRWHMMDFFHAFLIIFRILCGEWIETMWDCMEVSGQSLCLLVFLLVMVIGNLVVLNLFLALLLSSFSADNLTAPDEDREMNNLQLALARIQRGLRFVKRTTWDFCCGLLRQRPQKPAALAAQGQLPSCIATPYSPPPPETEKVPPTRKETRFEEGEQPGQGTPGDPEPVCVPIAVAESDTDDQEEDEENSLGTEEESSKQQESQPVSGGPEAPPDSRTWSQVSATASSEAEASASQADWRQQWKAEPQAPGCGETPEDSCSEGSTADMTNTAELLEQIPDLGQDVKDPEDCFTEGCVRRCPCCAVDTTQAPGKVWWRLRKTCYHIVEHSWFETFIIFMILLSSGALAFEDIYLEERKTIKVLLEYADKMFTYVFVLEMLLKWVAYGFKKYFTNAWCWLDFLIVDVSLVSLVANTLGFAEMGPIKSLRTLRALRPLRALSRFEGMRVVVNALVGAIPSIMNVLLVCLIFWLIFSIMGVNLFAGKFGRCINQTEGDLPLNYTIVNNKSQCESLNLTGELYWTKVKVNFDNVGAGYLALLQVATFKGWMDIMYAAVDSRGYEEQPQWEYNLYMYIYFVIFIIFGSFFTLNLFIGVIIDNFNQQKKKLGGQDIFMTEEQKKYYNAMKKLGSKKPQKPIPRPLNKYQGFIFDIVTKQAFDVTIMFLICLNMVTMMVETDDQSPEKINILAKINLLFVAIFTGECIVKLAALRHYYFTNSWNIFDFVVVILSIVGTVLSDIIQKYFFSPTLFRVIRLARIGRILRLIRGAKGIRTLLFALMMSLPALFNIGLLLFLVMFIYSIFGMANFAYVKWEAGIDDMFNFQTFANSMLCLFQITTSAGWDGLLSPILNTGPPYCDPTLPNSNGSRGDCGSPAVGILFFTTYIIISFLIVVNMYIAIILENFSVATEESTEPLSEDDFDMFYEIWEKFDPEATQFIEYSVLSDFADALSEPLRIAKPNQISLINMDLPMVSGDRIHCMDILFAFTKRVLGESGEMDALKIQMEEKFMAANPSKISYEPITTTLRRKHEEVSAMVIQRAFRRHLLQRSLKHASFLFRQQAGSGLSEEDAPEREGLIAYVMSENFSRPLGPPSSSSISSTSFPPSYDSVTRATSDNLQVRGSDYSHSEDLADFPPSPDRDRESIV
# PROTOCOL_SUMMARY: PatchXpress 7000 automated patch-clamp, sodium current
# Type: cell-based
# CONDITIONS: selectivity over Nav1.5
The entries below come with measured ratio of Nav 1.5:Nav 1.7 potency, determined by PatchXpress measurement values attached.
Reply with the value as a number alone.

// solved cases for ratio of Nav 1.5:Nav 1.7 potency, determined by PatchXpress measurement follow
[[record]]
compound = "O=c1oc2cc(S(=O)(=O)Nc3ncns3)c(F)cc2n1Cc1cccc2cncn12 [Compound 11-12]"
val = 368

[[record]]
compound = "C[C@@H](c1cccc2ccncc12)n1c(=O)oc2cc(S(=O)(=O)Nc3ncns3)c(F)cc21 [Compound 14-10]"
val = 27

[[record]]
compound = "O=c1oc2cc(S(=O)(=O)Nc3ncns3)c(F)cc2n1Cc1cccc2c1CC(N1CCC(F)(F)C1)CC2 (racemic) [Compound 23-5]"
val = 78

[[record]]
compound = "C[C@H](c1ccccc1C#C[C@H]1CCCN1)n1c(=O)oc2cc(S(=O)(=O)Nc3ncns3)c(F)cc21 [Compound 17-21]"
val = 2344

[[record]]
compound = "O=c1oc2cc(S(=O)(=O)Nc3ncns3)c(F)cc2n1Cc1cccc2c1CC(N1CCC1)CC2 (racemic) [Compound 23-19]"
val = 499

[[record]]
compound = "O=c1oc2cc(S(=O)(=O)Nc3ncns3)c(F)cc2n1Cc1ccccc1 [Compound 11-7]"
val = 55


Lab note: next compound to report on.
What does the record list as ratio of Nav 1.5:Nav 1.7 potency, determined by PatchXpress measurement for C[C@H](c1cccc2c1CC(NS(C)(=O)=O)CC2)n1c(=O)oc2cc(S(=O)(=O)Nc3ncns3)c(F)cc21 (stereo partly shown) [Compound 36-7] ? 107

* * *

# EXPERIMENTAL_TARGET: human Nav1.5 channels stably expressed in HEK 293 cells (Homo sapiens, UniProt Q14524)
# Construct: expressed in transfected cells
# PROTOCOL_SUMMARY: PatchXpress 7000 automated patch-clamp, sodium current
# Type: cell-based
# CONDITIONS: selectivity over Nav1.5
Measured ratio of Nav 1.5:Nav 1.7 potency, determined by PatchXpress measurement values are reported for all entries that follow.
Respond with the number and no other words.

Example entries begin here.
[[record]]
molecule = "NC1CCc2c(cccc2Cn2c(=O)oc3cc(S(=O)(=O)Nc4ncns4)ccc32)C1 (racemic)"
experimental_target = "human Nav1.5 channels stably expressed in HEK 293 cells (Homo sapiens, UniProt Q14524)"
val = 88

[[record]]
molecule = "Nc1ccc2c(c1)C(n1c(=O)oc3cc(S(=O)(=O)Nc4nccs4)c(F)cc31)CCC2 (stereo not drawn) [Compound 43-16]"
experimental_target = "human Nav1.5 channels stably expressed in HEK 293 cells (Homo sapiens, UniProt Q14524)"
val = 329

[[record]]
molecule = "O=c1oc2cc(S(=O)(=O)Nc3nccs3)c(F)cc2n1C1CCCc2ccncc21 (stereo not drawn)"
experimental_target = "human Nav1.5 channels stably expressed in HEK 293 cells (Homo sapiens, UniProt Q14524)"
val = 91


Quick check: ratio of Nav 1.5:Nav 1.7 potency, determined by PatchXpress measurement of CC(c1cccc(-c2ccnc(CO)c2)c1)n1c(=O)oc2cc(S(=O)(=O)Nc3ncns3)c(F)cc21 (stereo not drawn) ? 61

Entry to check: C[C@H](c1cccc2c1CN(S(C)(=O)=O)CC2)n1c(=O)oc2cc(S(=O)(=O)Nc3ncns3)c(F)cc21 35

Subsequent entry: O=c1oc2cc(S(=O)(=O)Nc3ncns3)c(F)cc2n1C[C@H]1C[C@@H]1I 56

What do you have for C[C@H](c1ccccc1CN1CCC(F)C1)n1c(=O)oc2cc(S(=O)(=O)Nc3ncns3)c(F)cc21 (stereo partly drawn) ? 82
